Reported Ki for target or system memapsin 2 (Homo sapiens), by entry.

smi: Cc1csc([C@H]2CCCN2C(=O)c2cc(C(=O)N[C@@H](Cc3cc(F)cc(F)c3)[C@H](O)[C@H]3CCCN3)cc(N3CCCS3(=O)=O)c2)n1
Ki: < 250 nM
//
smi: Cc1csc([C@H]2CCCN2C(=O)c2cc(C(=O)N[C@@H](Cc3cccc(F)c3)[C@H](O)[C@H]3CCCN3)cc(N3CCCS3(=O)=O)c2)n1
Ki: < 250 nM

* * *

Target: memapsin 2 (Cricetulus griseus, UniProt G3IAK4)
Construct: endogenous in cells
Sequence (G3IAK4 22-501): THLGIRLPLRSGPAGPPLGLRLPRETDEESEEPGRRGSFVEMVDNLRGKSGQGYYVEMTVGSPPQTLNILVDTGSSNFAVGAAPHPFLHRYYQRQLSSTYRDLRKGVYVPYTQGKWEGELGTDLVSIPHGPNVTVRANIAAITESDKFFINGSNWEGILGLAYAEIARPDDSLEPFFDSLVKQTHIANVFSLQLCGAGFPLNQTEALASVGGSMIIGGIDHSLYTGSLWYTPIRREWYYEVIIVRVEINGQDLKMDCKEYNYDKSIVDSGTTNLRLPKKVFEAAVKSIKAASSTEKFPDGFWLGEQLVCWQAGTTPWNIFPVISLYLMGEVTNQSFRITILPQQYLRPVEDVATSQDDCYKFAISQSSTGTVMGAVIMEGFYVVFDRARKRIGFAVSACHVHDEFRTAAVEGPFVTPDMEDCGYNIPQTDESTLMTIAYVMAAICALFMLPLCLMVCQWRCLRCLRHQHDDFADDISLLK
Assay: Cellular Aβ IC50 determination (Aβ40 sandwich ELISA)
Conditions: Chinese hamster ovary cells over-expressing human APP695 (London and Swedish mutations), Aβ40, 24 h; read-out: M2 IC50
Catalogue of compounds with associated IC50
parameter-measured: IC50

smi: Cc1csc([C@H]2CCCN2C(=O)c2cc(C(=O)N[C@@H](Cc3cccc(F)c3)[C@H](O)[C@H]3CCCN3)cc(N3CCCS3(=O)=O)c2)n1
target-under-test: memapsin 2 (Cricetulus griseus, UniProt G3IAK4)
parameter-measured: IC50
result: 0.5 to 1 µM
//
smi: Cc1csc([C@H]2CCCN2C(=O)c2cc(C(=O)N[C@@H](Cc3cc(F)cc(F)c3)[C@H](O)[C@H]3CCCN3)cc(N3CCCS3(=O)=O)c2)n1
target-under-test: memapsin 2 (Cricetulus griseus, UniProt G3IAK4)
parameter-measured: IC50
result: < 0.5 µM
//
smi: Cc1csc([C@H]2CCCN2C(=O)c2cc(C(=O)N[C@@H](Cc3ccccc3)[C@H](O)[C@H]3CCCN3)cc(N3CCCCS3(=O)=O)c2)n1
target-under-test: memapsin 2 (Cricetulus griseus, UniProt G3IAK4)
parameter-measured: IC50
result: < 0.5 µM
//
smi: Cc1csc([C@H]2CCCN2C(=O)c2cc(C(=O)N[C@@H](Cc3cc(F)cc(F)c3)[C@H](O)[C@H]3CCCN3)cc(N3CCCCS3(=O)=O)c2)n1
target-under-test: memapsin 2 (Cricetulus griseus, UniProt G3IAK4)
parameter-measured: IC50
result: < 0.5 µM
//
smi: Cc1csc([C@H]2CCCN2C(=O)c2cc(C(=O)N[C@@H](Cc3ccccc3)[C@H](O)[C@H]3CCCN3)cc(N3CCCS3(=O)=O)c2)n1
target-under-test: memapsin 2 (Cricetulus griseus, UniProt G3IAK4)
parameter-measured: IC50
result: < 0.5 µM
